Cited source: paper PMC7615710

- target_entity: T1, ASPP2 C-terminal domain (CTD), tag cleaved (UniProt Q13625 925-1128)
- T1 chain: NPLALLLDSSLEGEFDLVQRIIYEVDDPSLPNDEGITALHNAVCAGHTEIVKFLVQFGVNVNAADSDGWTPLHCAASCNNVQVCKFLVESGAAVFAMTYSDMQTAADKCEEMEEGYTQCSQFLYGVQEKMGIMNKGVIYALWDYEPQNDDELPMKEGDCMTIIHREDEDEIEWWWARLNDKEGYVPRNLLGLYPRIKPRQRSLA
- assay_name: ITC
reported_metric: pKd
Please keep in mind that pKd is minus log10 of the molar concentration; only the number is needed.

May I ask what pKd has been recorded for LPPPKKAPTPPPRRRRTVGL [NS5A PRR peptide of HCV strain JFH-1 (20 aa)] ?
7.37
